The following molecules are shown together with reported Onset of Symptoms values.
tested on: Sprague Dawley rats; test: In vivo lethality, oral gavage; design: species or system rat (Sprague Dawley); settings: 20 mg/Kg, rat, mean time, visual signs of distress consistent with NRB-like symptoms
readout_name: Onset of Symptoms (min)

[
  {
    "molecule": "CCc1ccc(C=CC(=O)OCCN2C(=O)C3C4C=C(C(O)(c5ccccc5)c5ccccn5)C(C4=C(c4ccccc4)c4ccccn4)C3C2=O)cc1 (stereo not drawn)",
    "endpoint_unit": "min",
    "observed": 15
  },
  {
    "molecule": "CCOc1ccc(C=CC(=O)NCCN2C(=O)C3C4C=C(C(O)(c5ccccc5)c5ccccn5)C(C4=C(c4ccccc4)c4ccccn4)C3C2=O)cc1 (stereo not drawn)",
    "endpoint_unit": "min",
    "observed": 15
  },
  {
    "molecule": "O=C1NC(=O)C2C3C(C(O)(c4ccccc4)c4ccccn4)=CC(C3=C(c3ccccc3)c3ccccn3)C12 (stereo not drawn) [endo-NRB, reference compound]",
    "endpoint_unit": "min",
    "observed": 5
  }
]

---

Test: Rat liver S9 fraction assay (release of NRB or NRB analogue)
Format: in vitro ADME, rat (male Sprague-Dawley)
Details: 1 mg/mL rat liver S9 fraction, 37° C., 6 h, n = 3
Description: The hydrolytic stability of compounds of the invention was also evaluated in vitro using rat liver S9 fraction (20 mg/mL), pooled from male rat (Sprague-Dawley), obtained from Sigma-Aldrich, diluted to 1 mg/mL with phosphate buffer (0.1 M, pH 7.4) and stored at −78° C. […]
# Lookup of reported % NRB released, Rat Liver S9 keyed by entry

[
  {
    "molecule": "O=C(CCCCCCCCC(=O)OCCN1C(=O)C2C3C=C(C(O)(c4ccccc4)c4ccccn4)C(C3=C(c3ccccc3)c3ccccn3)C2C1=O)OCCN1C(=O)C2C3C=C(C(O)(c4ccccc4)c4ccccn4)C(C3=C(c3ccccc3)c3ccccn3)C2C1=O (stereo not drawn)",
    "bound_operator": "<",
    "% NRB released, Rat Liver S9, %": 5
  },
  {
    "molecule": "O=C(OCCN1C(=O)C2C3C=C(C(O)(c4ccccc4)c4ccccn4)C(C3=C(c3ccccc3)c3ccccn3)C2C1=O)c1ccc2ccccc2c1 (stereo not drawn)",
    "bound_operator": "=",
    "% NRB released, Rat Liver S9, %": 14.1
  },
  {
    "molecule": "O=C(CCCCCCCCC(=O)OCN1C(=O)C2C3C=C(C(O)(c4ccccc4)c4ccccn4)C(C3=C(c3ccccc3)c3ccccn3)C2C1=O)OCN1C(=O)C2C3C=C(C(O)(c4ccccc4)c4ccccn4)C(C3=C(c3ccccc3)c3ccccn3)C2C1=O (stereo not drawn)",
    "bound_operator": "=",
    "% NRB released, Rat Liver S9, %": 6.2
  }
]

---

test system: Sprague Dawley rats; assay: In vivo lethality, oral gavage; design: species or system rat (Sprague Dawley); conditions: 20 mg/Kg, rat, mean time, visual signs of distress consistent with NRB-like symptoms
readout_name: Onset of Symptoms (min)

[
  {
    "compound": "O=C(C=Cc1ccccc1)OCN1C(=O)C2C3C=C(C(O)(c4ccccc4)c4ccccn4)C(C3=C(c3ccccc3)c3ccccn3)C2C1=O (stereo not drawn)",
    "observed": 20
  },
  {
    "compound": "CCCCCCCC(=O)OCCN1C(=O)C2C3C=C(C(O)(c4ccccc4)c4ccccn4)C(C3=C(c3ccccc3)c3ccccn3)C2C1=O (stereo not drawn)",
    "observed": 15
  },
  {
    "compound": "CCCCCCCCCCCC(=O)NCCN1C(=O)C2C3C=C(C(O)(c4ccccc4)c4ccccn4)C(C3=C(c3ccccc3)c3ccccn3)C2C1=O (stereo not drawn)",
    "observed": 200
  },
  {
    "compound": "CC(=Cc1ccccc1)C(=O)OCCN1C(=O)C2C3C=C(C(O)(c4ccccc4)c4ccccn4)C(C3=C(c3ccccc3)c3ccccn3)C2C1=O (stereo not drawn)",
    "observed": 20
  },
  {
    "compound": "COc1ccc(C=CC(=O)OCCN2C(=O)C3C4C=C(C(O)(c5ccccc5)c5ccccn5)C(C4=C(c4ccccc4)c4ccccn4)C3C2=O)cc1 (stereo not drawn)",
    "observed": 25
  },
  {
    "compound": "Cc1ccc(CC(=O)OCN2C(=O)C3C4C=C(C(O)(c5ccccc5)c5ccccn5)C(C4=C(c4ccccc4)c4ccccn4)C3C2=O)cc1 (stereo not drawn)",
    "observed": 15
  }
]

---

Onset of Symptoms: recorded values
system: Sprague Dawley rats; assay: In vivo lethality, oral gavage; set-up: species or system rat (Sprague Dawley); conditions: 20 mg/Kg, rat, mean time, visual signs of distress consistent with NRB-like symptoms
readout_name: Onset of Symptoms (min)

[
  {
    "molecule": "O=C(Cc1ccccc1)OCN1C(=O)C2C3C=C(C(O)(c4ccccc4)c4ccccn4)C(C3=C(c3ccccc3)c3ccccn3)C2C1=O (stereo not shown)",
    "endpoint_unit": "min",
    "observed": 15
  },
  {
    "molecule": "CCCCCCCC(=O)OCN1C(=O)C2C3C=C(C(O)(c4ccccc4)c4ccccn4)C(C3=C(c3ccccc3)c3ccccn3)C2C1=O (stereo not shown)",
    "endpoint_unit": "min",
    "observed": 15
  },
  {
    "molecule": "CC(C)c1ccc(C=CC(=O)OCCN2C(=O)C3C4C=C(C(O)(c5ccccc5)c5ccccn5)C(C4=C(c4ccccc4)c4ccccn4)C3C2=O)cc1 (stereo not shown)",
    "endpoint_unit": "min",
    "observed": 20
  },
  {
    "molecule": "O=C(C=Cc1ccccc1)OCCCN1C(=O)C2C3C=C(C(O)(c4ccccc4)c4ccccn4)C(C3=C(c3ccccc3)c3ccccn3)C2C1=O (stereo not shown)",
    "endpoint_unit": "min",
    "observed": 20
  }
]

---

Recorded melting point for the following compounds
readout_name: melting point

[
  {
    "compound": "COc1cc(C=CC(=O)OCCN2C(=O)C3C4C=C(C(O)(c5ccccc5)c5ccccn5)C(C4=C(c4ccccc4)c4ccccn4)C3C2=O)cc(OC)c1OC (stereo not drawn)",
    "readout_name": "melting point",
    "observed": "109 to 113 °C"
  },
  {
    "compound": "O=C(C=Cc1ccc(OC(F)(F)F)cc1)OCCN1C(=O)C2C3C=C(C(O)(c4ccccc4)c4ccccn4)C(C3=C(c3ccccc3)c3ccccn3)C2C1=O (stereo not drawn)",
    "readout_name": "melting point",
    "observed": "100 to 105 °C"
  },
  {
    "compound": "O=C(C=Cc1ccc([N+](=O)[O-])cc1)OCCN1C(=O)C2C3C=C(C(O)(c4ccccc4)c4ccccn4)C(C3=C(c3ccccc3)c3ccccn3)C2C1=O (stereo not drawn)",
    "readout_name": "melting point",
    "observed": "105 to 110 °C"
  },
  {
    "compound": "COc1ccccc1C(=O)OCN1C(=O)C2C3C=C(C(O)(c4ccccc4)c4ccccn4)C(C3=C(c3ccccc3)c3ccccn3)C2C1=O (stereo not drawn)",
    "readout_name": "melting point",
    "observed": "83 to 88 °C"
  },
  {
    "compound": "COc1ccccc1C=CC(=O)OCCN1C(=O)C2C3C=C(C(O)(c4ccccc4)c4ccccn4)C(C3=C(c3ccccc3)c3ccccn3)C2C1=O (stereo not drawn)",
    "readout_name": "melting point",
    "observed": "101 to 108 °C"
  },
  {
    "compound": "CC(C)(C)C(=O)OCN1C(=O)C2C3C=C(C(O)(c4ccccc4)c4ccccn4)C(C3=C(c3ccccc3)c3ccccn3)C2C1=O (stereo not drawn)",
    "readout_name": "melting point",
    "observed": "95 to 98 °C"
  },
  {
    "compound": "O=C(OCN1C(=O)C2C3C=C(C(O)(c4ccccc4)c4ccccn4)C(C3=C(c3ccccc3)c3ccccn3)C2C1=O)c1ccccc1 (stereo not drawn)",
    "readout_name": "melting point",
    "observed": "94 to 96 °C"
  },
  {
    "compound": "COc1ccc(C(=O)OCN2C(=O)C3C4C=C(C(O)(c5ccccc5)c5ccccn5)C(C4=C(c4ccccc4)c4ccccn4)C3C2=O)cc1 (stereo not drawn)",
    "readout_name": "melting point",
    "observed": "94 to 112 °C"
  },
  {
    "compound": "CCCC(=O)OCN1C(=O)C2C3C=C(C(O)(c4ccccc4)c4ccccn4)C(C3=C(c3ccccc3)c3ccccn3)C2C1=O (stereo not drawn)",
    "readout_name": "melting point",
    "observed": "68 to 79 °C"
  },
  {
    "compound": "O=C(CCc1ccccc1)OCN1C(=O)C2C3C=C(C(O)(c4ccccc4)c4ccccn4)C(C3=C(c3ccccc3)c3ccccn3)C2C1=O (stereo not drawn)",
    "readout_name": "melting point",
    "observed": "89 to 94 °C"
  },
  {
    "compound": "COc1cccc(C(=O)OCN2C(=O)C3C4C=C(C(O)(c5ccccc5)c5ccccn5)C(C4=C(c4ccccc4)c4ccccn4)C3C2=O)c1 (stereo not drawn)",
    "readout_name": "melting point",
    "observed": "171 to 180 °C"
  },
  {
    "compound": "O=C(C=Cc1ccc(Cl)c(Cl)c1)OCCN1C(=O)C2C3C=C(C(O)(c4ccccc4)c4ccccn4)C(C3=C(c3ccccc3)c3ccccn3)C2C1=O (stereo not drawn)",
    "readout_name": "melting point",
    "observed": "99 to 104 °C"
  }
]
